Each record here notes measured growth inhibition.
experiment: NCI Yeast Anticancer Drug Screen. Data for the mec2-1 strain (AID 157); conditions: S. cerevisiae mec2-1 strain, at 50.0 µM, active compounds read high
Compounds without any hit were thinned out: in the full panel of roughly 79,000, 15% have a hit. Where a SMILES comes first, the peptide text is derived from it. The star is where a group is joined. Boc = CC(C)(C)OC(=O)*
Express your answer in %, writing the number without its unit.

Solved cases (5 shown):
molecule	growth inhibition, %
Clc1nc(Cl)c2ncnc(Cl)c2n1	16.1
CCOC(=O)C(CC(C)C)NC(=O)C(Cc1ccccc1)NC(=O)CNC(=O)OC(C)(C)C (stereo not drawn) (Boc-Gly-Phe-Leu-OEt; configuration not given here)	7.35
Nc1ccc(N=Nc2ccc(N)cc2)cc1	6.5
CCCCCCCCCCCCCCCCS(=O)(=O)N/N=C(/C)N(C)c1ccc(OC)cc1	-32.4
O=C(Nc1ccc(NC(=O)Nc2ccc(C3=NCCN3)cc2)cc1)Nc1ccc(C2=NCCN2)cc1	7.15

input: Any idea what its growth inhibition is? The molecule is CC(=O)OC1CCC2(C)C(CCC3C2C(=O)C(Br)C2(C)C(C(C)=O)CCC32)C1 (centres undefined)
output: 0.5

input: Which measured growth inhibition value corresponds to `On1c(-c2ccccc2)c(-c2c(-c3ccccc3)n(O)c3ccccc23)c2ccccc21` ?
output: 6.45

input: For the molecule `O=C(O)COc1cc(Cl)cc(F)c1Cl` , what growth inhibition is on record?
output: 4.1

input: Need growth inhibition of `COC(=O)NN=C1C(C)(C)C(=O)C1(C)C` , thanks.
output: -21.8

Value source: PubChem BioAssay (NCI)
